# Experimental Target: Liver carboxylesterase 1 (Homo sapiens, UniProt P23141)
# Sequence (P23141 whole entry): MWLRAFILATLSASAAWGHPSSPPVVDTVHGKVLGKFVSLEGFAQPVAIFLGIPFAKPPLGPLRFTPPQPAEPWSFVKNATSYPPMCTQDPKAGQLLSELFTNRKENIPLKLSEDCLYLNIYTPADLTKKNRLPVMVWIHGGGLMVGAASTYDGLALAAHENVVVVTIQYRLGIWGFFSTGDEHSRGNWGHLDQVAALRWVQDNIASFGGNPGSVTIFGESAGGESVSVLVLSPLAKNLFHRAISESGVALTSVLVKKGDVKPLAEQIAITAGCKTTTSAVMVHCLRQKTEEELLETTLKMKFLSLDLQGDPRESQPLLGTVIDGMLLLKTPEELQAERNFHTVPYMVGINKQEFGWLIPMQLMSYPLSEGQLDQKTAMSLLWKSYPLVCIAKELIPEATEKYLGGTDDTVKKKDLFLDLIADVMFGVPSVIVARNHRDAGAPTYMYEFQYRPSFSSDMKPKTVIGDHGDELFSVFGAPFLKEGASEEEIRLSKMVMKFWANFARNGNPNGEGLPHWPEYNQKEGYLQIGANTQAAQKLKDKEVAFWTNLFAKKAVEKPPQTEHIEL
# Experimental Protocol: Prodrug activation assessed as human carboxylesterase 1b-mediated indomethacin formation by measuring intrinsic clearance per mg protein at 0.003125 to 0.10 mM after 30 to 180 mins by HPLC based Michaelis-Menten plot analysis
# Protocol Conditions: isolated protein, 100 µM
Overview of recorded clearance for various compounds

Cpd Smiles	clearance
CCCCSC(=O)Cc1c(C)n(C(=O)c2ccc(Cl)cc2)c2ccc(OC)cc12	380 µL/min/mg

[ask] # clearance lookup, item COc1ccc2c(c1)c(CC(=O)OCC(C)C)c(C)n2C(=O)c1ccc(Cl)cc1
[reply] 89 µL/min/mg

[ask] # clearance lookup, item CC[C@@H](C)OC(=O)Cc1c(C)n(C(=O)c2ccc(Cl)cc2)c2ccc(OC)cc12
[reply] 4.8 µL/min/mg

[ask] # clearance lookup, item CC[C@H](C)OC(=O)Cc1c(C)n(C(=O)c2ccc(Cl)cc2)c2ccc(OC)cc12
[reply] 2.1 µL/min/mg

---

# Experimental Target: Liver carboxylesterase 1 (Homo sapiens, UniProt P23141)
# Experimental Protocol: Prodrug activation in human intestine microsomes assessed as carboxylesterase 1-mediated indomethacin formation at 0.25 mM after 30 to 1440 mins by HPLC analysis
# Protocol Conditions: 250 µM
Attribute Measured: Drug metabolism

Examples with answers:
Cpd Smiles	Recorded Result
CC[C@H](OC(=O)Cc1c(C)n(C(=O)c2ccc(Cl)cc2)c2ccc(OC)cc12)c1ccccc1	Metabolite_Notdetected
CCCCOC(=O)Cc1c(C)n(C(=O)c2ccc(Cl)cc2)c2ccc(OC)cc12	Metabolite_Detected
COc1ccc2c(c1)c(CC(=O)OC(C)(C)C)c(C)n2C(=O)c1ccc(Cl)cc1	Metabolite_Notdetected
CCCCSC(=O)Cc1c(C)n(C(=O)c2ccc(Cl)cc2)c2ccc(OC)cc12	Metabolite_Detected

Attention now shifts to the item below.
[ask] # Drug metabolism lookup, item CC[C@H](C)OC(=O)Cc1c(C)n(C(=O)c2ccc(Cl)cc2)c2ccc(OC)cc12
[reply] Metabolite_Notdetected

---

# Experimental Target: Liver carboxylesterase 1 (Homo sapiens, UniProt P23141)
# Experimental Protocol: Prodrug activation in human liver microsomes assessed as carboxylesterase 1-mediated indomethacin formation at 0.25 mM after 30 to 1440 mins by HPLC analysis
# Protocol Conditions: 250 µM
Attribute Measured: Drug metabolism

Examples with answers:
Cpd Smiles	Drug metabolism
CC[C@@H](OC(=O)Cc1c(C)n(C(=O)c2ccc(Cl)cc2)c2ccc(OC)cc12)c1ccccc1	Metabolite_Notdetected
CCCCSC(=O)Cc1c(C)n(C(=O)c2ccc(Cl)cc2)c2ccc(OC)cc12	Metabolite_Detected
CCCCOC(=O)Cc1c(C)n(C(=O)c2ccc(Cl)cc2)c2ccc(OC)cc12	Metabolite_Detected
COc1ccc2c(c1)c(CC(=O)OCC(C)C)c(C)n2C(=O)c1ccc(Cl)cc1	Metabolite_Detected
CC[C@H](C)OC(=O)Cc1c(C)n(C(=O)c2ccc(Cl)cc2)c2ccc(OC)cc12	Metabolite_Notdetected
COc1ccc2c(c1)c(CC(=O)OCC(C)(C)C)c(C)n2C(=O)c1ccc(Cl)cc1	Metabolite_Detected
CC[C@H](OC(=O)Cc1c(C)n(C(=O)c2ccc(Cl)cc2)c2ccc(OC)cc12)c1ccccc1	Metabolite_Notdetected
COc1ccc2c(c1)c(CC(=O)OC(C)(C)C)c(C)n2C(=O)c1ccc(Cl)cc1	Metabolite_Notdetected

Attention now shifts to the item below.
[ask] # Drug metabolism lookup, item CC[C@@H](C)OC(=O)Cc1c(C)n(C(=O)c2ccc(Cl)cc2)c2ccc(OC)cc12
[reply] Metabolite_Notdetected

The reported measurements were obtained from ChEMBL document CHEMBL4219117.
